METHOD DESCRIPTION: chemical genetic growth profiling, strain panel (AID 1159580);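 note: tested at 20 µM; growth read once vehicle control cultures reached saturation at 30 °C; 1 = growth at the plate median or of vehicle wells; lower values mean less growth of the strain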
TEST CONDITIONS: S. cerevisiae deletion strains, growth OD, locus YDR392W, strain spt3
The campaign covered roughly 5,500 compounds. About 2,000 (36%) were called active. Another 18% or so got no clear call; they are omitted. Cut-off read from the data, not from the text of the source: active = normalized growth mostly below about 0.91 (no sharp cut-off); inconclusive = no clear call, values can overlap the other calls; inactive = mostly above about 0.92. This is one part of the list.
Classes used: 1 = active, -1 = inactive

{"COMPOUND": "OC/C=C/c1ccc(O)c(O)c1", "DISCRETE LABEL": -1}
{"COMPOUND": "CC1=C(/C=C/C(C)=C/C=C/C(C)=C/C(=O)O)C(C)(C)CCC1", "DISCRETE LABEL": 1}
{"COMPOUND": "CC12CCC3C(CC=C4CC(O)CCC43C)C1CCC2=O (stereo not given)", "DISCRETE LABEL": 1}
{"COMPOUND": "C[C@H](COc1ccccc1)N[C@H](C)[C@H](O)c1ccc(O)cc1", "DISCRETE LABEL": -1}
{"COMPOUND": "CCn1cc(C(=O)O)c(=O)c2cnc(N3CCNCC3)nc21", "DISCRETE LABEL": -1}
{"COMPOUND": "CS(=O)(=O)OCCCCOS(C)(=O)=O", "DISCRETE LABEL": -1}
{"COMPOUND": "O=C(O)c1ccc2c(c1)OCO2", "DISCRETE LABEL": -1}
{"COMPOUND": "CC1(C)O[C@@H]2[C@@H](CO[C@@]3(COS(N)(=O)=O)OC(C)(C)O[C@@H]23)O1", "DISCRETE LABEL": -1}
{"COMPOUND": "CN(C)CCCO[C@H]1[C@@H](C(O)CO)OC2OC(C)(C)O[C@@H]21 (stereo not given in full)", "DISCRETE LABEL": -1}
{"COMPOUND": "O=C(O)c1cc(=O)c(O)c2c(O)c(O)c(O)cc2c1", "DISCRETE LABEL": 1}
{"COMPOUND": "CC(=O)O[C@H]1CC[C@@]2(C)C(=CCC3C2CC[C@@]2(C)C3CC[C@@H]2C(C)CCCC(C)C)C1 (stereo not given in full)", "DISCRETE LABEL": -1}
{"COMPOUND": "O=C1CN(/N=C\\c2ccc([N+](=O)[O-])o2)C(=O)N1", "DISCRETE LABEL": 1}
{"COMPOUND": "CC[C@@]1(C2O[C@@H](C3O[C@@](O)(CC)[C@H](C)C[C@@H]3C)C[C@@H]2C)CC[C@H]([C@]2(C)CCC3(C[C@H](O)[C@@H](C)[C@@H]([C@H](C)[C@@H](OC)[C@H](C)C(=O)O)O3)O2)O1 (stereo not given in full)", "DISCRETE LABEL": -1}
{"COMPOUND": "CC1(C)CC2C1CCC1(C)OC2(C)CCC1O (stereo not given)", "DISCRETE LABEL": -1}
{"COMPOUND": "Nc1nccs1", "DISCRETE LABEL": -1}
{"COMPOUND": "CC12CCCC(O)(C1)C1CC(C)(C)C1CC2 (stereo not given)", "DISCRETE LABEL": 1}
{"COMPOUND": "O=C(NC(Cc1cc(=O)[nH]c2ccccc12)C(=O)O)c1ccc(Cl)cc1 (stereo not given)", "DISCRETE LABEL": -1}
{"COMPOUND": "NC(=O)c1cnccn1", "DISCRETE LABEL": -1}
{"COMPOUND": "CC(COc1ccccc1)N(CCCl)Cc1ccccc1 (stereo not given)", "DISCRETE LABEL": -1}
{"COMPOUND": "Oc1ccc(/C=C/c2cc(O)cc(O)c2)cc1", "DISCRETE LABEL": -1}
{"COMPOUND": "CC[C@]12CCCN3CCc4c(n(c5ccccc45)C(=O)C1)[C@@H]32", "DISCRETE LABEL": -1}
{"COMPOUND": "CC1=C(/C=C/C(C)=C/C=C/C(C)=C/CO)C(C)(C)CCC1", "DISCRETE LABEL": -1}
{"COMPOUND": "Cc1ccc(C(C)C)cc2c(C)ccc1-2", "DISCRETE LABEL": -1}
{"COMPOUND": "COc1ccc(-c2cc(C(F)F)nn2-c2ccc(S(N)(=O)=O)cc2)cc1F", "DISCRETE LABEL": -1}
{"COMPOUND": "O=C(O)c1cc(O)c(O)c(O)c1", "DISCRETE LABEL": -1}
{"COMPOUND": "CCOC(=O)C(C)(N)Cc1ccc(O)c(O)c1 (stereo not given)", "DISCRETE LABEL": -1}
{"COMPOUND": "O=C(O)P(=O)(O)O", "DISCRETE LABEL": -1}
{"COMPOUND": "CCCCC(CC)CN=C(N)NC(N)=NCCCCCCN=C(N)NC(N)=NCC(CC)CCCC (stereo not given)", "DISCRETE LABEL": 1}
{"COMPOUND": "CCOP(=S)(OCC)Oc1ccc2c(C)c(Cl)c(=O)oc2c1", "DISCRETE LABEL": -1}
{"COMPOUND": "C[C@@H]1C[C@@H]([C@H](O)CC2CC(=O)NC(=O)C2)C(=O)[C@@H](C)C1", "DISCRETE LABEL": 1}
{"COMPOUND": "NC(=O)c1ccc(N)nc1", "DISCRETE LABEL": -1}
{"COMPOUND": "CCN(CC)CCOC(=O)C(Cc1cccc2ccccc12)CC1CCCO1 (stereo not given)", "DISCRETE LABEL": -1}
{"COMPOUND": "CO[C@@H]1[C@@H](O[C@@H]2O[C@H](C)[C@@H](O[C@H]3C[C@@](C)(O)[C@H](O)[C@H](C)O3)[C@H](N(C)C)[C@H]2O)[C@@H](CC=O)C[C@@H](C)[C@@H](O[C@H]2CC[C@H](N(C)C)[C@@H](C)O2)/C=C/C=C/C[C@H](C)OC(=O)C[C@H]1O", "DISCRETE LABEL": -1}
{"COMPOUND": "Nc1c(Br)cc(Br)cc1CNC1CCC(O)CC1 (stereo not given)", "DISCRETE LABEL": -1}
{"COMPOUND": "O=C1OCCN1/N=C\\c1ccc([N+](=O)[O-])o1", "DISCRETE LABEL": 1}
{"COMPOUND": "COP(=S)(OC)Oc1ccc(SC)c(C)c1", "DISCRETE LABEL": -1}
{"COMPOUND": "CCn1cc(C(=O)O)c(=O)c2cc3c(cc21)OCO3", "DISCRETE LABEL": -1}
{"COMPOUND": "O=c1cccc2n1C[C@H]1CNCC2C1", "DISCRETE LABEL": -1}
{"COMPOUND": "COc1ccc(CN(CCN(C)C)c2ncccn2)cc1", "DISCRETE LABEL": -1}
{"COMPOUND": "CCOC(N)=O", "DISCRETE LABEL": -1}
{"COMPOUND": "CCOC(=O)C1=C[C@]2(CC)CCCN3CCc4c(n1c1ccccc41)[C@@H]32", "DISCRETE LABEL": -1}
{"COMPOUND": "CC12CCC(CC1)C(C)(C)O2", "DISCRETE LABEL": -1}
{"COMPOUND": "c1cc2c(cc1[C@H]1OC[C@H]3[C@@H]1CO[C@H]3c1ccc3c(c1)OCO3)OCO2", "DISCRETE LABEL": 1}
{"COMPOUND": "CC(=O)O[C@H]1C[C@@H](OC(C)=O)C(C)(C)C2C[C@@H](OC(C)=O)[C@]3(C)C(CC[C@@]4(C)[C@H](c5ccoc5)C(=O)[C@H]5O[C@]543)[C@]21C (stereo not given in full)", "DISCRETE LABEL": -1}
{"COMPOUND": "O=C(O)c1cc(=O)c(O)c2c(O)c(O)ccc2c1", "DISCRETE LABEL": -1}
